- subject of test: T1, Recombinant purified HER2 receptor composed of the ectodomain of HER2 fused to the Fc of human IgG (human, UniProt P04626 23-652, limits assumed)
- T1 construct: extracellular domain; Provided by Dr. Che Law, Xcyte Therapeutics; amine-coupled to the Biacore chip (3500 RU); also called immobilized HER2; p185; not shown: Fc of human IgG
- assay: Biacore SPR, HER2 ectodomain-Fc immobilized, peptide as analyte
Positions of bridges follow the written chain, without caps; N, C: chain ends. No end group written: not given here.
In plain terms, low kon, meaning strictly below 900 M⁻¹ s⁻¹, gives condition met, and everything else gives condition not met.

{"columns": ["binder", "group label"],
 "data": [
  ["FCDGFYACYMDV-NH2 (disulfide 2-8, Designed from the CDR-H3 loop of rhumAb 4D5; also called anti-HER2 peptide) [AHNP (anti-HER2/neu peptide mimetic), peptide 1, FCDGFYACYMDV-NH2]", "condition not met"],
  ["FCDGFYACYMDV-OH (disulfide 2-8 (inferred), also called peptide 2) [AHNP analogue 2, FCDGFYACYMDV-OH (cyclic)]", "condition not met"],
  ["FCDGFYACYKDV-OH (disulfide 2-8 (inferred), Met of peptide 2 replaced by Lys; also called peptide 6) [AHNP analogue 6, FCDGFYACYKDV-OH]", "condition met"],
  ["GFCDGFYACYMDV-OH (disulfide 3-9 (inferred), Gly placed at the N-terminus before Phe1; also called peptide 7) [AHNP analogue 7, GFCDGFYACYMDV-OH]", "condition not met"],
  ["FCDGFYACYMDVK-NH2 (disulfide 2-8 (inferred), Lys added as C-terminal residue; also called peptide 5) [AHNP analogue 5, FCDGFYACYMDVK-NH2]", "condition met"],
  ["YCDGFYACYMDV-NH2 (disulfide 2-8 (inferred), N-terminal Phe of AHNP replaced with Tyr; also called peptide 3) [AHNP analogue 3, YCDGFYACYMDV-NH2]", "condition not met"],
  ["FCDGFYACYMDV-OH (cysteine pairing not given here, also called peptide 9; linear analogue 9) [AHNP analogue 9, FCDGFYACYMDV-OH (linear, not cyclized)]", "condition met"]
]}
